# TARGET OR SYSTEM: Rac GTPase-activating protein 1 (Homo sapiens) (UniProt Q9H0H5)
# Sequence (Q9H0H5 whole entry, looked up): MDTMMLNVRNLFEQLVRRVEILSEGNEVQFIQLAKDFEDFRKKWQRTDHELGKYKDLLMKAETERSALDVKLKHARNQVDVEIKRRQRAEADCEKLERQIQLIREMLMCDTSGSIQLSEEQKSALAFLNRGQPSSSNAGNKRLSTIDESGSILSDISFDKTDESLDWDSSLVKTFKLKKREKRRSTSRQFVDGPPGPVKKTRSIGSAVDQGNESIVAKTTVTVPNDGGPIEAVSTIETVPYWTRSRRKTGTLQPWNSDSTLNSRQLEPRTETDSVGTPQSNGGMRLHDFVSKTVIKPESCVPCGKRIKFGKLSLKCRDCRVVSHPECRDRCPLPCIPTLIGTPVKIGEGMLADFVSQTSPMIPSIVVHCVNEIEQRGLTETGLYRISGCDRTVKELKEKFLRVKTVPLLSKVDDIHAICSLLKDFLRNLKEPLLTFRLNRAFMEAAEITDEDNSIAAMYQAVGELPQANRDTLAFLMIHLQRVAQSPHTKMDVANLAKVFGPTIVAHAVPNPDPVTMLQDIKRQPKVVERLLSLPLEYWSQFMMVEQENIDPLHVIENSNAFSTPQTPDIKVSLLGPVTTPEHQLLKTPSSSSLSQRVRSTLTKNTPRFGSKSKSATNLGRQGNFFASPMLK
# MEASUREMENT DESCRIPTION: blockers of MgcRacGAP-driven Rac1 GTP hydrolysis – biochemical, ADP Hunter fluorescence, primary and confirmatory, confirmation (AID 624330);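 note: fluorescence reports GDP produced by GAP-driven GTP hydrolysis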
# CONDITION DETAILS: MgcRacGAP-stimulated Rac1 GTP hydrolysis, at 30 µM, active compounds read high, GST-tagged Rac1 F28L mutant substrate
In all, about 340,000 compounds went through this assay and about 2,100 (0.62%) were called active. Only a sample is shown. Measured potencies and affinities stand elsewhere.
READOUT TYPE: inhibition (%)
Give the quantity in %, number only.

Data request: Please give measured inhibition of the following entry: COC(=O)C1=C(C)N(Cc2ccccc2)C(=O)N[C@H]1CCc1ccccc1
Data returned: 8.96

Data request: Supply reported inhibition belonging to this compound: O=C(O)c1cccc(N2C(=O)C=CC2=O)c1
Data returned: 9.07

Data request: Given the compound CC1CN(Cc2nc3c(c(=O)n(C)c(=O)n3C)n2CC(O)CO)CC(C)O1 (stereo unspecified) , write its reported inhibition.
Data returned: 1.13

Data request: Kindly indicate its recorded inhibition. Item: CCN(CC)S(=O)(=O)c1ccc(NC2=NS(=O)(=O)c3ccccc32)cc1
Data returned: 1.99

Data request: Output inhibition of COc1cc2c(cc1OC)C(C)=NCC2
Data returned: 5.87

Data request: Return inhibition (reported value) for this compound: O=S1(=O)N=C(Nc2ccc(N3CCOCC3)cc2)c2ccccc21
Data returned: 2.07

----------
Give inhibition for every item shown.
# TARGET OR SYSTEM: Rac GTPase-activating protein 1 (Homo sapiens) (UniProt Q9H0H5)
# MEASUREMENT DESCRIPTION: blockers of MgcRacGAP-driven Rac1 GTP hydrolysis – biochemical, ADP Hunter fluorescence, primary and confirmatory, confirmation (AID 624330);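 note: fluorescence reports GDP produced by GAP-driven GTP hydrolysis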
# CONDITION DETAILS: MgcRacGAP-stimulated Rac1 GTP hydrolysis, at 30 µM, active compounds read high, GST-tagged Rac1 F28L mutant substrate
In all, about 340,000 compounds went through this assay and about 2,100 (0.62%) were called active. Only a sample is shown. Measured potencies and affinities stand elsewhere.
Numbers only; they are read as %.

Data request: State the measured inhibition (Rac GTPase-activating protein 1 (Homo sapiens) (UniProt Q9H0H5)) of CCOc1ccc(S(=O)(=O)N2CCN(C(=O)c3cc(-c4ccccc4)nn3-c3ccccc3)CC2)cc1
Data returned: 6.52

Data request: Name the value of inhibition reported for Cc1ccc(S(=O)(=O)NCC(=O)N(CC2CCCO2)C(C(=O)NC2CCCC2)C(C)C)cc1 (stereo unspecified) when tested on Rac GTPase-activating protein 1 (Homo sapiens) (UniProt Q9H0H5).
Data returned: -2.26

Data request: # return inhibition of CC1=C(C)CC2(SC1)C(=O)N(c1ccccc1)N=C2N (stereo unspecified) (system: Rac GTPase-activating protein 1 (Homo sapiens) (UniProt Q9H0H5))
Data returned: 15

Data request: Enter recorded inhibition with Rac GTPase-activating protein 1 (Homo sapiens) (UniProt Q9H0H5) for COc1ccc(CNC(=O)c2ccc[nH]2)cc1Cl here.
Data returned: -1.95

Data request: Identify measured inhibition obtained with Rac GTPase-activating protein 1 (Homo sapiens) (UniProt Q9H0H5) for CCN1CCN(C(=O)C2CCN(C(=O)c3cc4sccc4n3CC)CC2)CC1 .
Data returned: 9.89

Data request: Send back Rac GTPase-activating protein 1 (Homo sapiens) (UniProt Q9H0H5) inhibition of Cc1ccc(Nc2ccccc2)cc1 only.
Data returned: 6.69

Data request: Report inhibition from Rac GTPase-activating protein 1 (Homo sapiens) (UniProt Q9H0H5) testing of C=CCOc1ccc(C(=O)Nc2ncn[nH]2)cc1
Data returned: 4.62

Data request: Would you please give the reported inhibition of CCCCc1nnc(NC(=O)CN2C(=O)C3CCCCC3C2=O)s1 (stereo unspecified) with Rac GTPase-activating protein 1 (Homo sapiens) (UniProt Q9H0H5)?
Data returned: 6.64

Data request: Report measured inhibition on Rac GTPase-activating protein 1 (Homo sapiens) (UniProt Q9H0H5); entry: CSc1nc2c(C)c(C)c(C)c(C)c2[nH]1
Data returned: 2.42

Data request: State recorded inhibition with Rac GTPase-activating protein 1 (Homo sapiens) (UniProt Q9H0H5), entry O=S(=O)(c1ccccc1)N(Cc1ccccn1)Cc1ccccn1 , no comment.
Data returned: 3.72

Data request: State inhibition on Rac GTPase-activating protein 1 (Homo sapiens) (UniProt Q9H0H5). Entry: CCOc1ccccc1NC(=O)COC(=O)C1CCC1
Data returned: 6.3

Data request: Check Rac GTPase-activating protein 1 (Homo sapiens) (UniProt Q9H0H5) data and give inhibition for CCOc1ccc(/C=N/NC(=O)CC(=O)Nc2ccc(Cl)c(Cl)c2)cc1 .
Data returned: 4.45

Data request: Look up Rac GTPase-activating protein 1 (Homo sapiens) (UniProt Q9H0H5) data: inhibition of Oc1ccccc1Cc1c(O)ccc2ccccc12 , then report it.
Data returned: 23.7

Data request: Specify inhibition for CCCCN(C(=O)c1cccc(-c2ccc(OC(C)=O)cc2)c1)c1c(N)n(CCC)c(=O)[nH]c1=O , system Rac GTPase-activating protein 1 (Homo sapiens) (UniProt Q9H0H5).
Data returned: 8.17

Data request: Answer briefly: inhibition recorded on Rac GTPase-activating protein 1 (Homo sapiens) (UniProt Q9H0H5) for c1ccc(CN2CCN(c3ncnc4c3[nH]c3ccccc34)CC2)cc1
Data returned: 20.2

Data request: Please report inhibition with Rac GTPase-activating protein 1 (Homo sapiens) (UniProt Q9H0H5) for item Nc1nc(N)c2nc(-c3ccccc3)c(N)nc2n1 .
Data returned: 4.54

Data request: Name the recorded inhibition of CCN(C(=O)c1ccccc1)c1ccc([N+](=O)[O-])cc1 , assay system Rac GTPase-activating protein 1 (Homo sapiens) (UniProt Q9H0H5).
Data returned: 6.29

Data request: GET inhibition | system: Rac GTPase-activating protein 1 (Homo sapiens) (UniProt Q9H0H5) | item: Clc1ccc(C2=Nc3cc(Cl)ccc3OC2)cc1
Data returned: 12.9

Data request: Give inhibition; test system Rac GTPase-activating protein 1 (Homo sapiens) (UniProt Q9H0H5); compound COc1cccc(NC(=O)C(=O)c2cn(CC(=O)N3CCCC3)c3ccccc23)c1
Data returned: 10

Data request: Send back Rac GTPase-activating protein 1 (Homo sapiens) (UniProt Q9H0H5) inhibition of Nc1[nH]c(=S)nc2nc(-c3ccccc3)c(-c3ccccc3)nc12 only.
Data returned: 9.86

Data request: Enter inhibition (test system Rac GTPase-activating protein 1 (Homo sapiens) (UniProt Q9H0H5)) for COc1ccccc1/C=N/NC(=O)CSc1ccc2ccccc2n1
Data returned: 17.4

Data request: Send back Rac GTPase-activating protein 1 (Homo sapiens) (UniProt Q9H0H5) inhibition of CC[C@]12C(=O)N(C)C[C@H]([C@@H]3C(=O)N(C)C(=O)[C@@H]31)N2C(=O)c1ccc(F)cc1 only.
Data returned: 7.98

Data request: Give inhibition; test system Rac GTPase-activating protein 1 (Homo sapiens) (UniProt Q9H0H5); compound N#CCC(=O)Nc1ccc(C(=O)OCC(=O)N=c2sccn2Cc2ccccc2Cl)cc1
Data returned: 5.66

Data request: System Rac GTPase-activating protein 1 (Homo sapiens) (UniProt Q9H0H5). Read-out inhibition. Item O=C1CCc2ccccc2N1 . Report value.
Data returned: 3.09

Data request: Param request: inhibition | system Rac GTPase-activating protein 1 (Homo sapiens) (UniProt Q9H0H5) | item CCOC(=O)Nc1c(C(=O)OC)[nH]c2cccc(OC)c12
Data returned: 9.48

Data request: Please indicate recorded inhibition of S=C(NCCc1ccccc1)Nc1ccc(Nc2ccccc2)cc1 measured with Rac GTPase-activating protein 1 (Homo sapiens) (UniProt Q9H0H5).
Data returned: 26.5

Data request: Give inhibition; test system Rac GTPase-activating protein 1 (Homo sapiens) (UniProt Q9H0H5); compound COCCN(CC(=O)NC1CCCCC1)C(=O)CCCC(=O)Nc1ccccn1
Data returned: -5.13

Data request: Enter measured inhibition, system Rac GTPase-activating protein 1 (Homo sapiens) (UniProt Q9H0H5), for the compound shown: CCOc1ccc(S(=O)(=O)Nc2ccccc2C(=O)Nc2ccccc2N2CCOCC2)cc1
Data returned: 1.24

Data request: Find the measured inhibition of N#Cc1ccc(-c2ccccc2)nc1Sc1ccc(F)cc1 with Rac GTPase-activating protein 1 (Homo sapiens) (UniProt Q9H0H5) as test system.
Data returned: 3.11

Data request: Under Rac GTPase-activating protein 1 (Homo sapiens) (UniProt Q9H0H5): report inhibition of COCc1cc(C(C)=O)ccc1OCC(=O)Nc1ccc(NC(C)=O)cc1 .
Data returned: 1.37

Data request: Answer briefly: inhibition recorded on Rac GTPase-activating protein 1 (Homo sapiens) (UniProt Q9H0H5) for c1ccc2c(c1)ccc1ccccc12
Data returned: -3.62

Data request: Provide the reported inhibition (system: Rac GTPase-activating protein 1 (Homo sapiens) (UniProt Q9H0H5)) for COc1cc(/C=C/C(=O)OCC(=O)NC(=O)NC(C)(C)C)cc(OC)c1OC
Data returned: 8.1

Data request: Name the value of inhibition reported for CCOC(=O)c1c(C)[nH]c(C(=O)CN2CCOCC2)c1C when tested on Rac GTPase-activating protein 1 (Homo sapiens) (UniProt Q9H0H5).
Data returned: 2.51

Data request: Report inhibition under test system Rac GTPase-activating protein 1 (Homo sapiens) (UniProt Q9H0H5) for Clc1ccc2c(c1)Nc1ccccc1CC2 .
Data returned: 9.56

Data request: State inhibition on Rac GTPase-activating protein 1 (Homo sapiens) (UniProt Q9H0H5). Entry: Cc1ccc(-c2c(C(=O)NC(C)C)oc(=O)c3ccccc23)cc1
Data returned: 5.65

Data request: State measured inhibition of the compound COc1ccc2c(N)c(C(=O)NN)[nH]c2c1 with Rac GTPase-activating protein 1 (Homo sapiens) (UniProt Q9H0H5).
Data returned: 27.6

Data request: Answer with inhibition of O=C1CCCC2=C1C(c1cccc(O)c1)C1=C(N2)c2ccccc2C1=O (stereo unspecified) measured for Rac GTPase-activating protein 1 (Homo sapiens) (UniProt Q9H0H5).
Data returned: -0.19

Data request: Would you please give the reported inhibition of COc1cc(/C=C/C(=O)OCC(=O)NC(=O)NC(C)C)cc(OC)c1OC with Rac GTPase-activating protein 1 (Homo sapiens) (UniProt Q9H0H5)?
Data returned: 6.89

Data request: Write inhibition of O=C(Nc1ccc(Nc2ccccc2)cc1)c1c(F)c(F)c(F)c(F)c1F ; system used: Rac GTPase-activating protein 1 (Homo sapiens) (UniProt Q9H0H5)
Data returned: -3.02

Data request: Specify the recorded inhibition for COc1ccc(Cl)cc1NC(=O)NN1CCN(C)CC1 , system: Rac GTPase-activating protein 1 (Homo sapiens) (UniProt Q9H0H5).
Data returned: 9.05

Data request: Lab note: record inhibition of CCOC(=O)CC1CCCCN1C(=O)CCCn1nnnc1CN1CCOCC1 (stereo unspecified) tested on Rac GTPase-activating protein 1 (Homo sapiens) (UniProt Q9H0H5).
Data returned: 7.71

Data request: Report the value of inhibition obtained on Rac GTPase-activating protein 1 (Homo sapiens) (UniProt Q9H0H5) for CCn1c(COc2ccc(=O)n(-c3ccccc3)n2)nnc1SCc1ccccc1C .
Data returned: -2.27

Data request: Fetch value of inhibition on Rac GTPase-activating protein 1 (Homo sapiens) (UniProt Q9H0H5) for CC(C)CCNC(=O)CCCCn1c(=O)[nH]c2ccsc2c1=O .
Data returned: 1.12

Data request: Give reported inhibition for CCOC(=O)c1c(C)[nH]c(C(=O)N2CCN(CC)CC2)c1C (Rac GTPase-activating protein 1 (Homo sapiens) (UniProt Q9H0H5))
Data returned: 2.01

Data request: Report inhibition from Rac GTPase-activating protein 1 (Homo sapiens) (UniProt Q9H0H5) testing of CS(=O)(=O)c1cccc(C(=O)Nc2cccc(S(=O)(=O)N3CCCC3)c2)c1
Data returned: 3.17

Data request: Write down the reported inhibition (system: Rac GTPase-activating protein 1 (Homo sapiens) (UniProt Q9H0H5)) of Cc1cnc(NC(=O)CN2CCN(c3ccccn3)CC2)s1
Data returned: 2.02
